Test system: HOP-62
Assay: NCI tumour cell line growth inhibition, 48 h
Calls of active or inactive are those of the source. Rule as the data show it: active = GI50 up to about 1.1 µM and inactive = higher.
Parameter: GI50. Scope: all listed entries.

Solved cases below.
>>> result("O=C(/C=C/c1ccc([N+](=O)[O-])cc1)c1nc2ccccc2[nH]1")
"> 34.2 µM (inactive)"
>>> result("C=C1CC2(CCOc3ccc(Cl)cc32)OC1=O (stereo unspecified)")
"5.35 µM (inactive)"
>>> result("CN1C(=O)C2(C=CC(O)CC2)c2ccccc21 (stereo unspecified)")
"> 100 µM (inactive)"
>>> result("CC1(C)[C@@H](Cn2cc(I)c(=O)[nH]c2=O)CC[C@@]1(C)CO")
"> 100 µM (inactive)"
>>> result("O=C1C2C(C(=O)N1c1ccccc1)C1(Br)c3ccccc3C2(Br)C2C(=O)N(c3ccccc3)C(=O)C21 (stereo unspecified)")
"> 10 µM (inactive)"

Ask | Entry under review: COc1ccc(-c2cc(-c3ccc(Cl)cc3)n(C3OC(CO)C(O)C(O)C3O)c(=S)c2C#N)cc1 (stereo unspecified) . Reported GI50?
Reply | 57.8 µM (inactive)

Ask | Request: O=C1N(Cc2ccccc2)C2CSCC2N1Cc1ccccc1 (stereo unspecified)
Reply | 1.85 µM (inactive)

Ask | Now try C[C@H](O)C1CC(Cn2nnc3c(N)ncnc32)C1(C)C (stereo partly specified) .
Reply | > 100 µM (inactive)

Ask | Cool, now "Nc1ccn([C@H]2CO[C@@H](CO)O2)c(=O)n1"
Reply | 1.67 µM (inactive)

Ask | Also "Cc1cc2nc3c(N)nn(CCCN(C)C)c3nc2cc1C" , if possible.
Reply | > 100 µM (inactive)

Ask | What would you report for "Oc1ccccc1C(Sc1nc2ccccc2s1)Sc1nc2ccccc2s1" ?
Reply | > 100 µM (inactive)

----------
System: COLO 205
Assay: NCI tumour cell line growth inhibition, 48 h
The source made the active and inactive calls. No stated cut-off is given here; in the data, active = GI50 up to about 1.1 µM and inactive = higher.
Could you please pick one outcome from this set? 1 (yes) (active), 0 (no) (inactive)

Here's what some known entries look like.
>>> answer_label("CN(CCNC(=O)c1cn(C)c2c1ccc1cc(Cl)ccc12)CCNC(=O)c1cn(C)c2c1ccc1cc(Cl)ccc12")
"0 (no)"
>>> answer_label("COc1cc2c(c(OC)c1OC)-c1ccc(SC)c(=O)cc1[C@@H](NCc1cccc([N+](=O)[O-])c1)CC2")
"1 (yes)"
>>> answer_label("CC(NC(=O)OC(C)(C)C)C(=O)C(N)=O (stereo not drawn)")
"0 (no)"
>>> answer_label("COc1ccc(-c2nc(O)c3ccccc3n2)cc1OC")
"0 (no)"
>>> answer_label("O=C1CSC(c2cccc(Cl)c2)N1c1ccc(-n2c(-c3ccccc3)nc3ccccc3c2=O)cc1 (stereo not drawn)")
"0 (no)"

Ask | Identify the outcome logged in this assay for the compound shown: COC(=O)C1=CO[C@@H](OC2CC(CO)C(O)C(O)C2O)[C@@H]2[C@@H](C)[C@@H](OC(=O)/C=C/c3ccccc3)[C@@H](O)[C@H]12.COC(=O)C1=CO[C@@H](OC2CC(CO)C(O)C(O)C2O)[C@@H]2[C@@H](C)[C@@H](OC(=O)c3ccccc3)[C@@H](O)[C@H]12 (stereo partly drawn)
Reply | 0 (no)

Ask | Same lookup for "Cc1ccc(/N=N/c2c(C)nn(C(=O)CC(=O)Nc3ccc(Cl)cc3)c2C)cc1C" , please.
Reply | 0 (no)

Ask | Can you handle "O=C1/C(=C/c2ccc3c(c2)CCC3)Cc2cc3c(cc21)CCC3" next?
Reply | 0 (no)
